biological target: Bcl-xL, Q07817; experiment: peptide SPOT array, c-Myc-tagged receptor at 1 uM or 100 nM, anti-c-Myc-Cy3
Sequence (Q07817 1-209): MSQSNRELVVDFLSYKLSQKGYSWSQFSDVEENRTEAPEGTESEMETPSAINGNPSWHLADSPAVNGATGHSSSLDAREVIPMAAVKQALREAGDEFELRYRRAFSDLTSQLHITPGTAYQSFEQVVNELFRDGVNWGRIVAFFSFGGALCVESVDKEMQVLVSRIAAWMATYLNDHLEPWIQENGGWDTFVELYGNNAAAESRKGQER
OBSERVED PROPERTY: SPOT signal as a fraction of Bim BH3's signal on the same receptor and array
One number for each entry.

Sample answers from the record:
ADVHGIWSRLDCDFGDEFEVLDTTGE [UBA6]: 0.06
THFLDEEVKLDKKMGDHLTNLHRLGG [FTL]: 0.07
GYPFNDVCQWFIDRADLIFVVFDPTK [SRL]: 0.07

Form field SPOT signal as a fraction of Bim BH3's signal on the same receptor and array, entry RIEMWISILELNELGEYAAVELHQAK [KIF13A] : 0.02
